The reported measurements were obtained from ChEMBL document CHEMBL5634161.

Experiment: Stability in human liver microsomes assessed as compound remaining at […] preincubated for 5 mins followed by NADPH addition and measured after 15 mins by LC-MS/MS analysis
Assay type: ADME, Microsome
Details: time 20 min, read-out: Stability
ATTRIBUTE MEASURED: remaining at 0.25 h

IN: Suppose we examine the compound COc1nc(-c2ccc(NC(=O)Nc3ccc(C(=O)NCCCCCC(=O)Nc4ccccc4N)cc3)cc2)nc(N2CCOCC2)n1 ; what remaining at 0.25 h value has been reported?
OUT: 62.6%

---

Test: AUC (0 to infinity) in ICR mouse at 1 mg/kg, iv measured after 24 hrs by LC-MS/MS analysis
Assay type: ADME, organism-based
Settings: in vivo
ATTRIBUTE MEASURED: AUC(0-inf) (ng·h/mL)
Kindly answer with a numeric value in ng·h/mL, unit omitted.

IN: Need AUC(0-inf), item COc1nc(-c2ccc(NC(=O)Nc3ccc(C(=O)NCCCCCC(=O)Nc4ccccc4N)cc3)cc2)nc(N2CCOCC2)n1
OUT: 2770
